These entries and their values trace back to paper PMC8047729.

molecular target: αS fibrils, Site 9 ([^3H]BF2846) (Homo sapiens, UniProt P37840); assay: Competition binding assay with Site 9 radioligand [^3H]BF2846 on αS fibrils; conditions: αS fibrils 50 nM, [^3H]BF2846 3 nM, 1 h 37 °C; 95% confidence intervals in parentheses (n = 3)
result_type: IC50 (µM)

[[record]]
substance_smiles = "COc1ccc(OCC(=O)Nc2cc(-c3ccccc3)no2)cc1"
result_type = "IC50"
unit_annotation = "µM"
assay_result = 0.557


a. COc1ccc(OCC(=O)Nc2cc(-c3ccc(Br)cc3)no2)cc1
b. Cc1ccc(OCC(=O)Nc2cc(-c3ccc(Br)cc3)no2)cc1C
c. Cc1ccc(OCC(=O)Nc2cc(-c3ccc(F)cc3)no2)cc1C
Q: Sort ascending by IC50. Answer format: list of labels, ordered as asked.
A: b, a, c
(b: 0.0126 µM, a: 0.037 µM, c: 0.109 µM)
